- TARGET DESC: Protein translocase subunit SecA (Escherichia coli (strain K12))
- MEASUREMENT PROTOCOL: Assay to Identify E. coli SecA ATPase Inhibitors
- Assay type: functional
- Set-up: scale not given: direction of the effect not stated beside the values
- ASSAY SETUP: 30 µM
Measured potencies and affinities stand elsewhere.
ASSAY READOUT: Percent Effect (%)
Field: numeric (%). Do not append units.

// solved cases for Percent Effect follow
CN(C(=O)Cc1c[nH]c2ccccc12)C1CCN(c2ccccn2)CC1 ... -4.77
Cc1cc2nc(SCC(=O)N3CCCC3)n(C(C)C)c(=O)c2[nH]1 ... -2.21
CCOCCCNC(=O)c1nn(CC)cc1Cl ... -0.389
CCOC(=O)N1CCN(c2nc(NCCCO)c3ccccc3n2)CC1 ... -3.88
Cc1cnn(CCNCc2nc(Cc3ccccc3)no2)c1 ... -0.787

Please examine the following record next.
Q) Would you kindly share the measured Percent Effect for COc1cccc(S(=O)(=O)N2CCn3cnc(COCC4CC4)c3C2)c1 ?
A) -2.27
